Target: T1, Cynomolgus SLC34A2 (Cynomolgus, UniProt A0A2K5UHY1 1-690)
T1 construct: whole, on cells; also called Cyno SLC34A2
T1 sequence: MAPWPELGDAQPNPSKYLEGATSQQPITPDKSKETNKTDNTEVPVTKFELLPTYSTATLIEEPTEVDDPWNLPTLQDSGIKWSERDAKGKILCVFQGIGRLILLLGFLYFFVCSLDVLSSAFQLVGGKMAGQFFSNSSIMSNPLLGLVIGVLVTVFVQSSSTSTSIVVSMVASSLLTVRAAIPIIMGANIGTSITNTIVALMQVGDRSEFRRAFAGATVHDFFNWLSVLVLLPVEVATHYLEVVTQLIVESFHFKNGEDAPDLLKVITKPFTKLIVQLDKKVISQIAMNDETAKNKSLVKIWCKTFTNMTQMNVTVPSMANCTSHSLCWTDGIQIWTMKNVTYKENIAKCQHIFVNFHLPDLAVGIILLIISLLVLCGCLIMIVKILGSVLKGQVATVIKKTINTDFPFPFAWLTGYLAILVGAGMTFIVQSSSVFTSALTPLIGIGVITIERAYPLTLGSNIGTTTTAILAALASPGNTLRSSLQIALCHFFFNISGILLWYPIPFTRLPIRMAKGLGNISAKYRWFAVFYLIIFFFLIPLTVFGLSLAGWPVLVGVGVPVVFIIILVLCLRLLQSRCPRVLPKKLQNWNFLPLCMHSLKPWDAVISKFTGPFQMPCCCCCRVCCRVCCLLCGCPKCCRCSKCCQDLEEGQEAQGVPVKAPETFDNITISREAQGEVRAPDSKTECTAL
Assay: FACS, cells expressing Cynomolgus SLC34A2
endpoint_name: Top (MFI)
Numbers only, in MFI.

Example entries and their recorded answers appear below.
[
  {
    "binder": "xi78D1B10 hIgG1 (antibody, V domains shown, chimeric, hIgG1) VH: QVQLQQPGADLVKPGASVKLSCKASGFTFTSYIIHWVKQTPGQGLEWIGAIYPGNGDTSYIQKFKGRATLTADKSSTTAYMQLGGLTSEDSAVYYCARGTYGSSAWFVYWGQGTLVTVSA VL: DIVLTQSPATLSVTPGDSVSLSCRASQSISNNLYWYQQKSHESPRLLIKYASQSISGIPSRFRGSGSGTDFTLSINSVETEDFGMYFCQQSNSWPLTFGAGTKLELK",
    "Top (MFI)": 4400
  },
  {
    "binder": "xi94B10A8 hIgG1 (antibody, V domains shown, chimeric, hIgG1) VH: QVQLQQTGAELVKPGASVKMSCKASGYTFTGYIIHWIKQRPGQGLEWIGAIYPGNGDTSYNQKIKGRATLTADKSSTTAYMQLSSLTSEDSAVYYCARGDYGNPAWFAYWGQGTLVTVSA VL: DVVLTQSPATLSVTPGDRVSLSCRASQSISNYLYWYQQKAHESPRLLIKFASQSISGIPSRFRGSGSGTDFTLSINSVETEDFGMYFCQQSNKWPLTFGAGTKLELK",
    "Top (MFI)": 3150
  }
]

Please examine the following record next.
Please supply the value of reported Top (MFI) for the item xi18G1H4 hIgG1 (antibody, V domains shown, chimeric, hIgG1) VH: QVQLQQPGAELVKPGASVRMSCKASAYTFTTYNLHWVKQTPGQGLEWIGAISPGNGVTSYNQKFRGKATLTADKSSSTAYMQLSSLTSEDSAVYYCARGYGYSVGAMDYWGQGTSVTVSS VL: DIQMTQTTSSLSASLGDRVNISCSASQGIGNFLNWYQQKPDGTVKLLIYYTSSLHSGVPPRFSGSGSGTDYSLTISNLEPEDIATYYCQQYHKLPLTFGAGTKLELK 4090
